Tested on: Hela cell line
test-protocol: Cytotoxicity MTS assay, Hela cell line;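 note: blank control wells received 0.025% DMSO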
Assay type: cell-based
assay-conditions: Hela cell line, MTS, 1μM, first assay
Item-by-item account of OD490 value, Well 2
Keep the answer to the number alone.

Study these solved cases before continuing.
# compound, assay-endpoint, recorded-result
rows = [
    ("CCOC(=O)c1[nH]c(C2NC(=S)NC(C)=C2C(=O)OC)c(C(=O)OCC)c1C (stereo not shown) [D12]", "OD490 value, Well 2", 2.2707),
    ("CCOc1ccccc1C1NC(=S)NC(C)=C1C(=O)Nc1ccc(Cl)cc1 (stereo not shown) [C9]", "OD490 value, Well 2", 2.5164),
    ("CCOC(=O)c1c(C2NC(=O)NC(C)=C2C(=O)Nc2ccccc2)[nH]c(C(=O)OC)c1C (stereo not shown) [D10]", "OD490 value, Well 2", 2.5965),
]

OD490 value, Well 2 for Hela cell line with input CCOC(=O)c1c(C2NC(=O)NC(C)=C2C(=O)Nc2ccccc2C)[nH]c(C(=O)OC)c1C (stereo not shown) [D2] equals 2.6265

The origin of these recorded values is paper PMC8037182.
